The reported numbers originate from ChEMBL document CHEMBL1201862.

Provide the reported GI50 of each item.
tested on: NCI-H226; assay: NCI tumour cell line growth inhibition, 48 h
Calls of active or inactive are those of the source. No stated cut-off is given here; in the data, active = GI50 up to about 1.1 µM and inactive = higher.

Quick one: GI50 for `Nc1ccn([C@H]2CO[C@@H](CO)O2)c(=O)n1` ?
39.4 µM (inactive)

And then `NN/C(=N\S(=O)(=O)c1cc2ccccc2o1)Nc1ccc(Cl)cc1` , what is it?
> 100 µM (inactive)

And then COc1ccc(N2C(=O)C3c4[nH]c5ccccc5c4C4CCCCCCCCCC4C3C2=O)cc1 (stereo not given) , what is it?
> 10 µM (inactive)

And then `C[C@H](NC(=O)c1ccc(CNC(=O)/C=C/c2cccc(Oc3ccccc3)c2)cc1)c1ccccc1` , what is it?
32.7 µM (inactive)

And then `O=C1C(Cl)=C(N2CCC[C@@H]2CO)C(=O)c2c(O)ccc(O)c21` , what is it?
1.71 µM (inactive)
